Collected IC50 values appear next to each entry.
# test system: c-Met (cytoplasmic domain) (Homo sapiens)
# Construct: 10 ng/mL c-Met (cytoplasmic domain, Invitrogen Corporation #PV3143); purchased Invitrogen Corporation PV3143
# method notes: c-Met Kinase Assay (same methods as for ALK, with modifications)
# Format: biochemical
# experimental parameters: c-Met kinase inhibition, 1 μM ATP (Km level); read-out: cMet Activity
measured metric: IC50

1. Cn1ccnc1-c1ccccc1Nc1nc(Nc2ccc3c(c2)CCC(F)(F)CC3)ncc1Cl; > 10 µM
2. CCN1C2CCC1c1c(ccc(Nc3ncc(Cl)c(N[C@@H]4CCCC[C@H]4NS(C)(=O)=O)n3)c1OC)C2 (stereo partly shown); > 10 µM
3. CNC(=O)c1cccc(F)c1Nc1nc(Nc2ccc3c(c2)C(=O)NCCC3)ncc1Cl; 0.1 to 1 µM
4. CCN1CC2OC(C1)c1cc(Nc3ncc(Cl)c(Nc4ccccc4S(=O)(=O)NC)n3)ccc12 (stereo not shown); 1 to 10 µM
5. CCN1C(=O)CCCc2c1ccc(Nc1ncc(Cl)c(NC3C4CCC(C4)C3C(N)=O)n1)c2OC (stereo not shown); > 10 µM
6. CNS(=O)(=O)c1ccccc1Nc1nc(Nc2ccc3c(c2)C2CCC3CN(S(C)(=O)=O)C2)ncc1Cl (stereo not shown); < 0.1 µM
7. COCCN1CCc2ccc(Nc3ncc(Cl)c(NCCNS(C)(=O)=O)n3)cc2CC1; 1 to 10 µM
8. CCN1CCc2ccc(Nc3ncc(Cl)c(NC(C)CNS(C)(=O)=O)n3)cc2CC1 (stereo not shown); 1 to 10 µM
9. CNC(=O)c1ccccc1Nc1nc(Nc2ccc3c(c2)CCC(N2CCOCC2)CC3)ncc1Cl (stereo not shown); < 0.1 µM
10. CNC(=O)c1ccccc1Nc1nc(Nc2ccc3c(c2)COC[C@@H]2CCCN32)ncc1Cl; < 0.1 µM
11. CNS(=O)(=O)c1ccccc1Nc1nc(Nc2ccc3c(c2)CCCC(=O)N3)ncc1Cl; < 0.1 µM
12. CCN1CCc2ccc(Nc3ncc(Cl)c(Nc4ccc(N5CCOCC5)cc4OC)n3)cc2CC1; 1 to 10 µM
13. COCCN1CCc2cc(Nc3ncc(Cl)c(Nc4ccccc4NS(C)(=O)=O)n3)c(OC)cc2CC1; 1 to 10 µM
14. CCN1CCc2ccc(Nc3ncc(Cl)c(Nc4cccc(N5CCOCC5)c4)n3)cc2CC1; 1 to 10 µM
15. COc1cc2c(cc1Nc1ncc(Cl)c(Nc3ccc(N4CCOCC4)cc3OC)n1)N(C)CCNC2; > 10 µM
16. CN1CCCCc2cc(Nc3ncc(Cl)c(N[C@@H]4CCCC[C@H]4NS(C)(=O)=O)n3)ccc21; 0.1 to 1 µM

###

# test system: c-Met (cytoplasmic domain) (Homo sapiens, UniProt P08581)
# Construct: 10 ng/mL c-Met (cytoplasmic domain, Invitrogen Corporation #PV3143); purchased Invitrogen Corporation PV3143
# Sequence (P08581 956-1390 limits assumed): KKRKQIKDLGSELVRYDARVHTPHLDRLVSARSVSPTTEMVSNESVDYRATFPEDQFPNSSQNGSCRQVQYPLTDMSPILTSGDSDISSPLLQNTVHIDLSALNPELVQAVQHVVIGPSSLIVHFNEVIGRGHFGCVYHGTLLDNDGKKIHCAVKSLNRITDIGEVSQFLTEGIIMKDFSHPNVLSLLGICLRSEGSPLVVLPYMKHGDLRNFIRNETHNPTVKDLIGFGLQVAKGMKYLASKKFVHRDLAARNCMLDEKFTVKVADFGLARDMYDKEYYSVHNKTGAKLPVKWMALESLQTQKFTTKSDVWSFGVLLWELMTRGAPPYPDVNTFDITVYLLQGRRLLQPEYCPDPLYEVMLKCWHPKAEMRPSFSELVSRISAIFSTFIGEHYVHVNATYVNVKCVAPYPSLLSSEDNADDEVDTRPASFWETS
# method notes: c-Met Kinase Assay (same methods as for ALK, with modifications)
# Assay type: biochemical
# experimental parameters: 1 μM ATP (Km level); read-out: cMet Activity (c-Met Kinase Inhibition, IC50)
pIC50: −log10 of the molar value.
Collected pIC50 values appear next to each entry.
measured metric: pIC50

1) COc1cc2c(cc1Nc1ncc(Cl)c(Nc3ccc(N4CCOCC4)cc3OC)n1)CCN(CC(=O)OC(C)C)CC2; < 5.00
2) COCCN1CCc2cc(Nc3ncc(Cl)c(Nc4ccccc4-c4nccn4C)n3)c(OC)cc2CC1; < 5.00
3) CCN1CCSc2ccc(Nc3ncc(Cl)c(Nc4ccccc4C(=O)NC)n3)cc2C1; > 7.00
4) CC(C)N1C(=O)CCCc2cc(Nc3ncc(Cl)c(NC4C5C=CC(C5)C4C(N)=O)n3)ccc21 (stereo not drawn); > 7.00
5) COc1cc2c(cc1Nc1ncc(Cl)c(Nc3ccccc3S(=O)(=O)N3CCN(C)CC3)n1)CCN(CC(=O)N(C)C)CC2; < 5.00
6) CCN1C(=O)CCCc2cc(Nc3ncc(Cl)c(Nc4ccccc4-c4nccn4C)n3)c(OC)cc21; < 5.00
7) COc1cc2c(cc1Nc1ncc(Cl)c(Nc3c(OC)ccc4c3CN(S(C)(=O)=O)CC(=O)N4)n1)CCN(CC(=O)N(C)C)CC2; < 5.00
8) COc1cc2c(cc1Nc1ncc(Cl)c(Nc3cc(Cl)ccc3OC)n1)CCN(CC(F)F)CC2; < 5.00
9) CNC(=O)C1C2C=CC(C2)C1Nc1nc(Nc2ccc3c(c2)CCC(N2CCOCC2)CC3)ncc1Cl (stereo not drawn); 6.00 to 7.00
10) NC(=O)C1C2C=CC(C2)C1Nc1nc(Nc2cccc3c2OCCCC3)ncc1Cl (stereo not drawn); < 5.00
11) COc1c(Nc2ncc(Cl)c(N[C@H]3[C@@H](C(N)=O)[C@@H]4C=C[C@H]3C4)n2)ccc2c1CCC(N1CCCC(O)C1)CC2 (stereo partly drawn) [Example 909]; 5.00 to 6.00
12) Cc1ccnc(-c2ccccc2Nc2nc(Nc3ccc4c(c3)CCCC(=O)N4C)ncc2Cl)c1; 6.00 to 7.00
13) COc1cc2c(cc1Nc1ncc(Cl)c(Nc3ccc(N4CCN(C)CC4)c(C)c3)n1)CCN(CC(C)(F)F)CC2; < 5.00
14) COCCN1CCc2ccc(Nc3ncc(Cl)c(Nc4c(F)cccc4OCC#N)n3)cc2CC1; > 7.00
15) CNC(=O)CN1CCc2cc(Nc3ncc(Cl)c(Nc4ccc(N5CCN(C)CC5)c(C)c4)n3)c(OC)cc2CC1; < 5.00

###

Collected IC50 values appear next to each entry.
# test system: c-Met (cytoplasmic domain) (Homo sapiens, UniProt P08581)
# Construct: 10 ng/mL c-Met (cytoplasmic domain, Invitrogen Corporation #PV3143); purchased Invitrogen Corporation PV3143
# method notes: c-Met Kinase Assay (same methods as for ALK, with modifications)
# Assay type: biochemical
# experimental parameters: 1 μM ATP (Km level), 10 ng/mL c-Met; read-out: cMet Activity (c-Met kinase inhibition, IC50 class)
measured metric: IC50

1) COCCN1CCc2ccc(Nc3ncc(Cl)c(N[C@@H]4CCCC[C@H]4N(CC#N)S(C)(=O)=O)n3)cc2CC1; 1 to 10 µM
2) CCCNC(=O)c1ccccc1Nc1nc(Nc2ccc3c(c2)CCCC(=O)N3)ncc1Cl; < 0.1 µM
3) CCN1C(=O)CCCc2c1ccc(Nc1ncc(Cl)c(Nc3ccc(N(C)C)cc3OC)n1)c2OC; > 10 µM
4) CNC(=O)c1ccc(Nc2nc(Nc3cc4c(cc3OC)CCN(Cc3ncco3)CC4)ncc2Cl)c(OC)c1; > 10 µM
5) CNc1nc(N2CCOCC2)ccc1Nc1nc(Nc2cc3c(cc2OC)CCN(CC(=O)N(C)C)CC3)ncc1Cl; > 10 µM
6) C#CCNC(=O)c1cccc(F)c1Nc1nc(Nc2ccc3c(c2)CCN(CCOC)CC3)ncc1Cl; < 0.1 µM
7) COc1ccc2c(c1Nc1ncc(Cl)c(Nc3ccccc3S(=O)(=O)N(C)C)n1)CCC(NCC(F)F)CC2 (stereo not shown); > 10 µM

###

# test system: baculovirus-expressed ALK (Homo sapiens)
# Construct: host or cells: baculovirus expression system
# method notes: ALK Kinase Assay (ELISA-type, time-resolved fluorescence)
# Type: biochemical
# experimental parameters: ALK kinase inhibition, 1 μM ATP (Km level); read-out: ALK Activity
Collected IC50 values appear next to each entry.
measured metric: IC50

1. CCN1C(=O)CCCc2c1ccc(Nc1ncc(Cl)c(N[C@@H]3[C@H](C(N)=O)[C@H]4C=C[C@@H]3C4)n1)c2OC [Example 132]; 1 to 10 µM
2. CNC(=O)c1ccccc1Nc1nc(Nc2ccc3c(c2OC)CCCC(=O)N3C)ncc1Cl [Example 116]; < 0.1 µM
3. CCN1CCc2ccc(Nc3ncc(C(F)(F)F)c(Nc4ccccc4C(=O)NC)n3)cc2CC1 [Example 195]; < 0.1 µM
4. CS(=O)(=O)N[C@@H]1CCCC[C@H]1Nc1nc(Nc2ccc3c(c2)CNC(=O)NC3)ncc1Cl [Example 226]; < 0.1 µM
5. CS(=O)(=O)N[C@@H]1CCCC[C@H]1Nc1nc(Nc2ccc3c(c2)C2CCC3CNC2)ncc1Cl (stereo partly shown) [Example 293]; < 0.1 µM
6. CCN1C2CCC1c1c(ccc(Nc3ncc(Cl)c(N[C@@H]4CCCC[C@H]4NS(C)(=O)=O)n3)c1OC)C2 (stereo partly shown) [Example 93]; > 10 µM
7. CNS(=O)(=O)c1ccccc1Nc1nc(Nc2ccc3c(c2)COC[C@@H]2CCCN32)ncc1Cl [Example 13]; < 0.1 µM

###

# test system: baculovirus-expressed ALK (Homo sapiens, UniProt Q9UM73)
# Construct: host or cells: baculovirus expression system
# Sequence (Q9UM73 19-1620): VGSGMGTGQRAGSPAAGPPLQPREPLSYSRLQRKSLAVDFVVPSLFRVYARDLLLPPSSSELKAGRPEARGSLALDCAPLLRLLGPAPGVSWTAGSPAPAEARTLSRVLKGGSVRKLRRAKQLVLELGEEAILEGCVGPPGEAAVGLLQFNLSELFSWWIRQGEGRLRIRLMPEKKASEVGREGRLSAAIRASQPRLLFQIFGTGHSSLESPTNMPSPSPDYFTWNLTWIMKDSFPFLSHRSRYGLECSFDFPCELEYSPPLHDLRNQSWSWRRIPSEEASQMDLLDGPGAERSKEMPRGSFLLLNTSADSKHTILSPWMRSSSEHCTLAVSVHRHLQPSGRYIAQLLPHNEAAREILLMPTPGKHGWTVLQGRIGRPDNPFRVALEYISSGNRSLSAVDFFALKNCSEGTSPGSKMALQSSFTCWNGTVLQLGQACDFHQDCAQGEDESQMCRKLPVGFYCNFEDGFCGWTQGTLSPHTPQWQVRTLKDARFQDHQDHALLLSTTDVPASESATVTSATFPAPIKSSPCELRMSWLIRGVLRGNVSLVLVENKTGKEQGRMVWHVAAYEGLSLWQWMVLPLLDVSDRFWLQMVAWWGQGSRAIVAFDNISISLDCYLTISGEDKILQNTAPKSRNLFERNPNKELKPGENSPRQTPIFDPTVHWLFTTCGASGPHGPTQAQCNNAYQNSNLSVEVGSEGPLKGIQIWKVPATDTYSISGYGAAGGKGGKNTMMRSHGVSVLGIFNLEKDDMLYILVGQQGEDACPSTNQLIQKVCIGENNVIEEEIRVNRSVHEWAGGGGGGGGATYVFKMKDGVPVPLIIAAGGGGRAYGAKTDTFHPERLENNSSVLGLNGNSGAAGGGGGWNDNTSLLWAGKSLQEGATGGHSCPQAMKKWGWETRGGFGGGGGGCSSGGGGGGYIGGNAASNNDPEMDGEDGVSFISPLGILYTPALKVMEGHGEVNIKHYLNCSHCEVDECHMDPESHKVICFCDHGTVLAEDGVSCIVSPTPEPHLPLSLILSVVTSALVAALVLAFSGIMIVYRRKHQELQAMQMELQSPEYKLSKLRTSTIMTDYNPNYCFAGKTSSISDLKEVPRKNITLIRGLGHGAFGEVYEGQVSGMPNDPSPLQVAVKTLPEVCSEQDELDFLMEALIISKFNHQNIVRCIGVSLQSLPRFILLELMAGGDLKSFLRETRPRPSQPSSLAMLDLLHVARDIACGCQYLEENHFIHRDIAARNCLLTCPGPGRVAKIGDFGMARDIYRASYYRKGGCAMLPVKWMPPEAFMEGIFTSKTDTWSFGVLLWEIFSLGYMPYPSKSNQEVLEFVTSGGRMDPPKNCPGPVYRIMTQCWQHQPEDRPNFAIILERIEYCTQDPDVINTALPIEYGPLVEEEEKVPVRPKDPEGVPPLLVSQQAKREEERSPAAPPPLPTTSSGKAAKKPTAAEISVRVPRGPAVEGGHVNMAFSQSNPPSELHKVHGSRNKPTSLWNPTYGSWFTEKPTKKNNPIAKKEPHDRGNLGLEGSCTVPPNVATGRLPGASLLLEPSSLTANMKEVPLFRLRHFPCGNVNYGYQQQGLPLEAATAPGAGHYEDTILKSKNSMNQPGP
# method notes: ALK Kinase Assay (ELISA-type, time-resolved fluorescence)
# Format: biochemical
# experimental parameters: 1 μM ATP (Km level), 30 ng/ml ALK, 37° C., 15 minutes; read-out: ALK Activity (ALK kinase inhibition, IC50 class)
measured metric: IC50

1) CNC(=O)c1ccc([N+](=O)[O-])cc1Nc1nc(Nc2ccc3c(c2)C(C)(C)CCC(=O)N3)ncc1Cl [Example 1235]; < 100 nM
2) COCCN1CCc2ccc(Nc3ncc(Cl)c(Nc4ccccc4OCC(=O)O)n3)cc2CC1 [Example 1242]; < 100 nM
3) COc1cc2c(cc1Nc1ncc(Cl)c(N[C@H]3[C@@H](C(N)=O)[C@@H]4C=C[C@H]3C4)n1)CCN(Cc1ncco1)CC2 [Example 1179]; < 100 nM
4) CCNC(=O)c1cccc(F)c1Nc1nc(Nc2ccc3c(c2)CNC(=O)CCN3C(C)=O)ncc1Cl [Example 1228]; 100 to 1000 nM
5) CCN1C(=O)C(NC(=O)CN(C)C)CCc2c1ccc(Nc1ncc(Cl)c(Nc3ccccc3S(=O)(=O)N(C)C)n1)c2OC (stereo not drawn) [Example 1356]; < 100 nM
6) CN(CCC#N)c1cccc(F)c1Nc1nc(Nc2ccc3c(c2)C(C)(C)CCC(=O)N3)ncc1Cl [Example 1267]; 100 to 1000 nM
7) CCN1C(=O)C(N(C)C)CCc2c1ccc(Nc1ncc(Cl)c(Nc3ccccc3-n3cccn3)n1)c2OC (stereo not drawn) [Example 1349]; < 100 nM
8) CNC(=O)c1cccc(F)c1Nc1nc(Nc2ccc3c(c2)NC(=O)C(NC(=O)N2CCCC2)CC3(C)C)ncc1Cl (stereo not drawn) [Example 1295]; 100 to 1000 nM
9) CNC(=O)C1(Nc2nc(Nc3cc4c(cc3OC)CCN(CC(=O)N(C)C)CC4)ncc2Cl)CC1 [Example 1198]; < 100 nM
10) CCN1C(=O)C(NC(=O)C2CC2)CCc2c1ccc(Nc1ncc(Cl)c(Nc3ccccc3S(=O)(=O)N(C)C)n1)c2OC (stereo not drawn) [Example 1359]; < 100 nM
11) O=C1CCCc2ccc(Nc3ncc(Cl)c(Nc4c(F)cccc4OCC4CCOC4)n3)cc2N1 (stereo not drawn) [Example 1276]; 100 to 1000 nM
12) COCCOC(=O)c1ccccc1Nc1nc(Nc2cc3c(cc2OC)CCC(NCCO)CC3)ncc1Cl (stereo not drawn) [Example 1093]; < 100 nM
13) CCNC(=O)c1cccc(F)c1Nc1nc(Nc2ccc3c(c2)C(C)(C)CCC(=O)N3)ncc1Cl [Example 1365]; < 100 nM
14) CNC(=O)CN1CCc2cc(Nc3ncc(Cl)c(Nc4c(F)cccc4C(=O)NC)n3)c(OC)cc2CC1 [Example 1116]; < 100 nM
15) COc1cc2c(cc1Nc1ncc(Cl)c(Nc3ccccc3S(=O)(=O)C(C)C)n1)CCC(N1CCN(C)CC1)CC2 (stereo not drawn) [Example 1100]; < 100 nM
16) COc1cc(N2CCOCC2)ccc1Nc1nc(Nc2ccc3c(c2)NC(=O)CCC3(C)C)ncc1Cl [Example 1234]; < 100 nM
17) CCN1C(=O)[C@H](NC(=O)COC)CCc2c1ccc(Nc1ncc(Cl)c(N[C@H]3[C@@H](C(N)=O)[C@@H]4C=C[C@H]3C4)n1)c2OC (single isomer, unassigned) [Example 1350]; < 100 nM
18) COc1cc2c(cc1Nc1ncc(Cl)c(Nc3ccccc3-n3cccn3)n1)CCC(NCC(F)F)CC2 (stereo not drawn) [Example 1059]; < 100 nM
19) CC(C)S(=O)(=O)c1ccccc1Nc1nc(Nc2ccc3c(c2)C(C)(C)CCC(=O)N3C)ncc1Cl [Example 1329]; < 100 nM
20) COc1cc2c(cc1Nc1ncc(Cl)c(Nc3ccccc3S(=O)(=O)C(C)C)n1)CCN(CC(=O)N1CCCC1)CC2 [Example 1158]; < 100 nM
21) CCN1C(=O)[C@H](N)CCc2c1ccc(Nc1ncc(Cl)c(N[C@H]3[C@@H](C(N)=O)[C@@H]4C=C[C@H]3C4)n1)c2OC (single isomer, unassigned) [Example 1331]; < 100 nM
22) COCCN1CCc2ccc(Nc3ncc(Cl)c(Nc4ccccc4C(=O)NCCN4CCCC4)n3)cc2CC1 [Example 1416]; 100 to 1000 nM
23) CNC(=O)c1cccc(F)c1Nc1nc(Nc2ccc3c(c2)NC(=O)C(NC(=O)OC)CC3(C)C)ncc1Cl (stereo not drawn) [Example 1299]; 100 to 1000 nM
24) COc1cc2c(cc1Nc1ncc(Cl)c(N[C@H]3[C@@H](C(N)=O)[C@@H]4C=C[C@H]3C4)n1)CCN(CC(=O)N(C)C)CC2 [Example 1123]; < 100 nM
25) CCN1C(=O)[C@@H](NC(=O)COC)CCc2c1ccc(Nc1ncc(Cl)c(N[C@H]3[C@@H](C(N)=O)[C@@H]4C=C[C@H]3C4)n1)c2OC (single isomer, unassigned) [Example 1351]; < 100 nM
26) CCN1C(=O)CCCc2c1ccc(Nc1ncc(Cl)c(Nc3ccccc3-n3cccn3)n1)c2OC [Example 1319]; < 100 nM
27) C#CCNC(=O)c1cccc(F)c1Nc1nc(Nc2ccc3c(c2)NC(=O)C(NC(C)=O)CC3(C)C)ncc1Cl (stereo not drawn) [Example 1290]; 1000 to 10000 nM
